Here the recorded interference binding, % of Reference Sequence is given for each entry.
target_system: T1, purified interference factor(s) from Donor B (human)
T1 construct: the text names the donors 8, 19 and 30; also called interference in serum from Donor B
assay_info: SPR, interference factor immobilized; % of Fig. 9 reference
Note: unit % is implicit; provide only the numeric part.

[[record]]
binder = "SEQ ID NO: 82 (VHH) VHH: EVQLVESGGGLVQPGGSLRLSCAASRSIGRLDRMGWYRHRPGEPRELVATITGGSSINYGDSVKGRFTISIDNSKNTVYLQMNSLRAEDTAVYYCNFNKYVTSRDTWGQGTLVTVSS"
reading_unit = "%"
recorded_measurement = 80

[[record]]
binder = "SEQ ID NO: 74 (VHH) VHH: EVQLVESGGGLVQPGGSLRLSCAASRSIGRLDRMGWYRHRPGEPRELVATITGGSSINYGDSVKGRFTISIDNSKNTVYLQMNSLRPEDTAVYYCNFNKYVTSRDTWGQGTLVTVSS"
reading_unit = "%"
recorded_measurement = 41

[[record]]
binder = "SEQ ID NO: 69 (VHH) VHH: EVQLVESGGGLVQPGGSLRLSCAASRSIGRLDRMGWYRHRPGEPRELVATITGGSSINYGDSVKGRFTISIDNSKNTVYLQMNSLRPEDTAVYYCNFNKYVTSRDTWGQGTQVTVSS"
reading_unit = "%"
recorded_measurement = 120

[[record]]
binder = "SEQ ID NO: 88 (VHH) VHH: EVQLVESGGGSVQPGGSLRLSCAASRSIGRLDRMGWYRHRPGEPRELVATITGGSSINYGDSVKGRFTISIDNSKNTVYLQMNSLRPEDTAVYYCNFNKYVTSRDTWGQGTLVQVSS"
reading_unit = "%"
recorded_measurement = 5

[[record]]
binder = "SEQ ID NO: 43 (VHH) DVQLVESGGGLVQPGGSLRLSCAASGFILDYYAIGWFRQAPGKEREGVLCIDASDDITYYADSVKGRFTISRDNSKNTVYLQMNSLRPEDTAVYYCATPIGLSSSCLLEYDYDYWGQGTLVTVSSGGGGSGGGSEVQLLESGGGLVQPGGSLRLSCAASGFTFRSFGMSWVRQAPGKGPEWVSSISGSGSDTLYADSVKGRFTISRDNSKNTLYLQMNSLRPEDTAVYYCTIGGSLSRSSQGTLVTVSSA"
reading_unit = "%"
recorded_measurement = 20


-- ask Which interference binding, % of Reference Sequence reading was recorded for the binder SEQ ID NO: 89 (VHH) VHH: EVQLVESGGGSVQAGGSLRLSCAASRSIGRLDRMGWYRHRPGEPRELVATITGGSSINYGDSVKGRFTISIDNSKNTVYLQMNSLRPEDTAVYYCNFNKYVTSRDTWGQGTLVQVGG ?
-- reply 5

-- ask Which interference binding, % of Reference Sequence value belongs to SEQ ID NO: 38 (VHH) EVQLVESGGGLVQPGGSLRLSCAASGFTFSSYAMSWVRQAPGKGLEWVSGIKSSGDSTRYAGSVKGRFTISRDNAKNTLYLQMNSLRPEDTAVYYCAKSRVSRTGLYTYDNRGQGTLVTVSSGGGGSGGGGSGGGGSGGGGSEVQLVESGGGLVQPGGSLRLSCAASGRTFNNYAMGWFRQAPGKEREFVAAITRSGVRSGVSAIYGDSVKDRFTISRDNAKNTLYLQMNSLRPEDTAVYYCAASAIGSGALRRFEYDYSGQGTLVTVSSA ?
-- reply 25

-- ask Fill in the blank: the reported interference binding, % of Reference Sequence of SEQ ID NO: 66 (VHH) VHH: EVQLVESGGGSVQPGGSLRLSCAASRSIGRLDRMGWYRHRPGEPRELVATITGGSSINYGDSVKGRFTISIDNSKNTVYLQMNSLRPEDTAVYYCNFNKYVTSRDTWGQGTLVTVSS is ____.
-- reply 29

-- ask Could you tell me which interference binding, % of Reference Sequence is on file for SEQ ID NO: 42 (VHH) EVQLVESGGGLVQPGGSLRLSCAASGRTFSYNPMGWFRQAPGKGRELVAAISRTGGSTYYPDSVEGRFTISRDNAKRMVYLQMNSLRAEDTAVYYCAAAGVRAEDGRVRTLPSEYTFWGQGTQVTVSSAAAEVQLVESGGGLVQPGGSLRLSCAASGRTFSYNPMGWFRQAPGKGRELVAAISRTGGSTYYPDSVEGRFTISRDNAKRMVYLQMNSLRAEDTAVYYCAAAGVRAEDGRVRTLPSEYTFWGQGTQVTVSSA ?
-- reply 4

-- ask Consider the binder SEQ ID NO: 70 (VHH) VHH: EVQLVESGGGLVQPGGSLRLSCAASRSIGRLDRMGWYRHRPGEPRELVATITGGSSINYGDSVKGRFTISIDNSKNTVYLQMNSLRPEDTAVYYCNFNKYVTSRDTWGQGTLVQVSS and give its measured interference binding, % of Reference Sequence.
-- reply 105

-- ask Given the binder SEQ ID NO: 83 (VHH) VHH: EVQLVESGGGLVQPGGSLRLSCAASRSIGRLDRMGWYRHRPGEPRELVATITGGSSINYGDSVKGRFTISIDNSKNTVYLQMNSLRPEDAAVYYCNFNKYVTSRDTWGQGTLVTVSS , what is its reported interference binding, % of Reference Sequence?
-- reply 73

-- ask State the recorded interference binding, % of Reference Sequence for this entry: SEQ ID NO: 85 (VHH) VHH: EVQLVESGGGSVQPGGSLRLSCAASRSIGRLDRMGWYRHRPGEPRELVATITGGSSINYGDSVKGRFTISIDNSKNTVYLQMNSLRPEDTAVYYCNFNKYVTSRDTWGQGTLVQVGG
-- reply 5
